# assayed_target: Dual specificity mitogen-activated protein kinase kinase 1 (Homo sapiens, UniProt Q02750)
# Sequence (Q02750 whole entry): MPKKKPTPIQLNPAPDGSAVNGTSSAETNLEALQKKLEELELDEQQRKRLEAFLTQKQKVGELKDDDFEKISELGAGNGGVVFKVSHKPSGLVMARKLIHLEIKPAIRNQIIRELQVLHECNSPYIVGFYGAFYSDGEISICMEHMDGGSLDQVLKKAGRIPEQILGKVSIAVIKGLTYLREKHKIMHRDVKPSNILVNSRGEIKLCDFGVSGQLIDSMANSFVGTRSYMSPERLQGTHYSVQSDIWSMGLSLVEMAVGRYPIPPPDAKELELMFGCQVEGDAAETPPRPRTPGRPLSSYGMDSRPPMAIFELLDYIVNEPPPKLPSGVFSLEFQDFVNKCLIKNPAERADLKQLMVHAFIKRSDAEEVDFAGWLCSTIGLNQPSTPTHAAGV
# experiment_notes: Inhibition of mitogen activated protein kinase kinase 1
pIC50: −log10 of the molar value.
observation_type: pIC50

# return recorded pIC50 for entry "O=C(Nc1ccccn1)Nc1cccc2c1[C@H]1CCCN1C2=O"
< 5.00

====

observation_type: IC50

Report the value of IC50 obtained on Platelet-derived growth factor receptor beta (Homo sapiens, UniProt P09619) for "O=C(Nc1ccccn1)Nc1cccc2c1[C@H]1CCCN1C2=O" .
Sequence (P09619 whole entry): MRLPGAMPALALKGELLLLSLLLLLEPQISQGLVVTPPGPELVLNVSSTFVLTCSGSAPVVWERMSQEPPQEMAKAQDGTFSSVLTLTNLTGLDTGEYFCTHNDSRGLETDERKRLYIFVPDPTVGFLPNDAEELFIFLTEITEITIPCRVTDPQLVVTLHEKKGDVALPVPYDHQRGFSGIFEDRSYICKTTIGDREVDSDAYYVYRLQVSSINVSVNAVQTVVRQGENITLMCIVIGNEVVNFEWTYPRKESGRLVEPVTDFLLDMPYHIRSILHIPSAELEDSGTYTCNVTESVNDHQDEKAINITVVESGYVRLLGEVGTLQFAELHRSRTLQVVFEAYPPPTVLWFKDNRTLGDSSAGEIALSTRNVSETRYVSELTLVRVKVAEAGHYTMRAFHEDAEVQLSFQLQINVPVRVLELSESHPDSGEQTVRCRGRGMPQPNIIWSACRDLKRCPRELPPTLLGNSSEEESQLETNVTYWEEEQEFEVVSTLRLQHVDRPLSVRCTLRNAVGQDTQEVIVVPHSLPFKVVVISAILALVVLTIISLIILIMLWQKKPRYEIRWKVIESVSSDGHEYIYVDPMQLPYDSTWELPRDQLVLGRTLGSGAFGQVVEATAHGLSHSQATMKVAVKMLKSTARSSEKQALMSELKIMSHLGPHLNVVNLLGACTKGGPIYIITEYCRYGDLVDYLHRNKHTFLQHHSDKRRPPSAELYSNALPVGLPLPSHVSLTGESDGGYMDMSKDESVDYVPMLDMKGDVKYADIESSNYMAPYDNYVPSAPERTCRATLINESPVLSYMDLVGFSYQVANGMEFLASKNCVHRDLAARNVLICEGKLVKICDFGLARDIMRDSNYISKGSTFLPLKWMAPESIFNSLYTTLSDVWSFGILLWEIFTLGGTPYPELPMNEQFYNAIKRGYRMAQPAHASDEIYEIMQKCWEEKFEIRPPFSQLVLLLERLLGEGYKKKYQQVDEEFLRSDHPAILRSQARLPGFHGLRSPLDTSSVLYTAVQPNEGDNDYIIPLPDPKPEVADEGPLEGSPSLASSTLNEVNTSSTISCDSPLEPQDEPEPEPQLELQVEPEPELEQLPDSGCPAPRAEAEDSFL
5 µM

====

# assayed_target: Cyclin-dependent kinase 2 and 4 (CDK2 and CDK4) (Homo sapiens) (UniProt P11802+P24941)
# experiment_notes: Selectivity for CDK4 over CDK2
# Assay type: protein assay
I'd appreciate it if you could supply Selectivity values for the items below.

# return Selectivity for CCCNCc1cc(NC(=O)Nc2cccc3c2C2CCCN2C3=O)[nH]n1 (stereo not given) , test system: Cyclin-dependent kinase 2 and 4 (CDK2 and CDK4) (Homo sapiens) (UniProt P11802+P24941)
75

Report value: Selectivity, system: Cyclin-dependent kinase 2 and 4 (CDK2 and CDK4) (Homo sapiens) (UniProt P11802+P24941), compound: O=C(Nc1cc(CNC2CCCC2)[nH]n1)Nc1cccc2c1C1CCCN1C2=O (stereo not given)
150

Give measured Selectivity for CNCc1cc(NC(=O)Nc2cccc3c2C2CCCN2C3=O)[nH]n1 (stereo not given) (Cyclin-dependent kinase 2 and 4 (CDK2 and CDK4) (Homo sapiens) (UniProt P11802+P24941)).
48

// fetch Selectivity; item: O=C(Nc1cc(CNC2CCCCC2)[nH]n1)Nc1cccc2c1C1CCCN1C2=O (stereo not given) ; system: Cyclin-dependent kinase 2 and 4 (CDK2 and CDK4) (Homo sapiens) (UniProt P11802+P24941)
27

Please tell me the measured Selectivity for "O=C(Nc1cc([C@@H]2CCCN2)[nH]n1)Nc1cccc2c1[C@@H]1CCCN1C2=O" ; system: Cyclin-dependent kinase 2 and 4 (CDK2 and CDK4) (Homo sapiens) (UniProt P11802+P24941).
120

Answer with Selectivity of O=C(Nc1cc(CN2CCCC2)[nH]n1)Nc1cccc2c1C1CCCN1C2=O (stereo not given) measured for Cyclin-dependent kinase 2 and 4 (CDK2 and CDK4) (Homo sapiens) (UniProt P11802+P24941).
16

Write down the reported Selectivity (system: Cyclin-dependent kinase 2 and 4 (CDK2 and CDK4) (Homo sapiens) (UniProt P11802+P24941)) of O=C(Nc1cc(CN2CCCCC2)[nH]n1)Nc1cccc2c1C1CCCN1C2=O (stereo not given)
48

Give reported Selectivity for CC(C)(C)NCc1cc(NC(=O)Nc2cccc3c2C2CCCN2C3=O)[nH]n1 (stereo not given) (Cyclin-dependent kinase 2 and 4 (CDK2 and CDK4) (Homo sapiens) (UniProt P11802+P24941))
180

Write down measured Selectivity (Cyclin-dependent kinase 2 and 4 (CDK2 and CDK4) (Homo sapiens) (UniProt P11802+P24941)) for this compound. CC(C)NCc1cc(NC(=O)Nc2cccc3c2C2CCCN2C3=O)[nH]n1 (stereo not given)
130

Jot down Selectivity (Cyclin-dependent kinase 2 and 4 (CDK2 and CDK4) (Homo sapiens) (UniProt P11802+P24941)) of "O=C(Nc1cc([C@@H]2CCCN2)[nH]n1)Nc1cccc2c1[C@H]1CCCN1C2=O" .
110

====

# assayed_target: Cyclin-dependent kinase 1/cyclin B (Homo sapiens)
# experiment_notes: Inhibition of human recombinant cyclin B-CDK1
Task for the reader: assign each of the following molecules its reported IC50.
Supply the numeric figure in µM, leaving out any unit text.

Indicate the recorded IC50 value for this molecule: "O=C(Nc1cc([C@@H]2CCCN2)n[nH]1)Nc1cccc2c1[C@@H]1CCCN1C2=O"
28

Supply measured IC50 of "O=C(Nc1cc([C@@H]2CCCN2)[nH]n1)Nc1cccc2c1[C@H]1CCCN1C2=O" in your reply.
31

====

# experiment_notes: Inhibition of human recombinant cyclin D2-CDK4
observation_type: IC50 (nM)
The reply should be a number in nM, with the unit left off.

Given the compound O=C(Nc1cc(CNC2CCCCC2)[nH]n1)Nc1cccc2c1C1CCCN1C2=O (configuration not stated) , write its reported IC50.
720

Tell me measured IC50 for CCCNCc1cc(NC(=O)Nc2cccc3c2C2CCCN2C3=O)[nH]n1 (configuration not stated) please.
160

Recall and state the measured IC50 for "O=C(Nc1cc([C@@H]2CCCN2)[nH]n1)Nc1cccc2c1[C@H]1CCCN1C2=O" .
220

Indicate its recorded IC50; the compound in question is "O=C(Nc1cc[nH]n1)Nc1cccc2c1[C@@H]1CCCN1C2=O"
29

Respond only with IC50 recorded for "O=C(Nc1cc[nH]n1)Nc1cccc2c1[C@H]1CCCN1C2=O"
21

# return recorded IC50 for entry "O=C(Nc1cc([C@@H]2CCCN2)[nH]n1)Nc1cccc2c1[C@@H]1CCCN1C2=O"
210

Tell me measured IC50 for CC(C)(C)NCc1cc(NC(=O)Nc2cccc3c2C2CCCN2C3=O)[nH]n1 (configuration not stated) please.
56

Note down IC50 recorded for CNCc1cc(NC(=O)Nc2cccc3c2C2CCCN2C3=O)[nH]n1 (configuration not stated)
290

# return recorded IC50 for entry CC(C)NCc1cc(NC(=O)Nc2cccc3c2C2CCCN2C3=O)[nH]n1 (configuration not stated)
130

Answer with reported IC50 of O=C(Nc1cc(CN2CCCCC2)[nH]n1)Nc1cccc2c1C1CCCN1C2=O (configuration not stated)
250

Give the reported value of IC50 for this record: O=C(Nc1cc(CNC2CCCC2)[nH]n1)Nc1cccc2c1C1CCCN1C2=O (configuration not stated)
65

Tell us which IC50 value is on record for O=C(Nc1cc(CN2CCCC2)[nH]n1)Nc1cccc2c1C1CCCN1C2=O (configuration not stated)
470

====

# assayed_target: Mitogen-activated protein kinase 3 (Homo sapiens)
# Sequence (P27361 whole entry): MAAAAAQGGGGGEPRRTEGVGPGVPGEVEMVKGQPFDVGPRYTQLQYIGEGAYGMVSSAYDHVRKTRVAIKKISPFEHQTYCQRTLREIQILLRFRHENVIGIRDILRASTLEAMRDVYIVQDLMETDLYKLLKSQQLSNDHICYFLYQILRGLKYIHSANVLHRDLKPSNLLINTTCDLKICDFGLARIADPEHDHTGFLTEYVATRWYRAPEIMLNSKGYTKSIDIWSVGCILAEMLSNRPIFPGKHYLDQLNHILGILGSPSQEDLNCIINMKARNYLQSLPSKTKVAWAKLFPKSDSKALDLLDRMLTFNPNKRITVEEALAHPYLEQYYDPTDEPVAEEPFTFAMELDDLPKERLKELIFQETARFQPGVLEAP
# experiment_notes: Inhibition of ERK1 ser/thr kinase.
observation_type: IC50

Give the reported value of IC50 for this record: "O=C(Nc1ccccn1)Nc1cccc2c1[C@H]1CCCN1C2=O"
> 10 µM

====

observation_type: IC50 (nM)
Numbers only; they are read as nM.

Report IC50 on Vascular endothelial growth factor receptor 1 (Homo sapiens) for this entry: "O=C(Nc1ccccn1)Nc1cccc2c1[C@H]1CCCN1C2=O"
Sequence (P17948 whole entry): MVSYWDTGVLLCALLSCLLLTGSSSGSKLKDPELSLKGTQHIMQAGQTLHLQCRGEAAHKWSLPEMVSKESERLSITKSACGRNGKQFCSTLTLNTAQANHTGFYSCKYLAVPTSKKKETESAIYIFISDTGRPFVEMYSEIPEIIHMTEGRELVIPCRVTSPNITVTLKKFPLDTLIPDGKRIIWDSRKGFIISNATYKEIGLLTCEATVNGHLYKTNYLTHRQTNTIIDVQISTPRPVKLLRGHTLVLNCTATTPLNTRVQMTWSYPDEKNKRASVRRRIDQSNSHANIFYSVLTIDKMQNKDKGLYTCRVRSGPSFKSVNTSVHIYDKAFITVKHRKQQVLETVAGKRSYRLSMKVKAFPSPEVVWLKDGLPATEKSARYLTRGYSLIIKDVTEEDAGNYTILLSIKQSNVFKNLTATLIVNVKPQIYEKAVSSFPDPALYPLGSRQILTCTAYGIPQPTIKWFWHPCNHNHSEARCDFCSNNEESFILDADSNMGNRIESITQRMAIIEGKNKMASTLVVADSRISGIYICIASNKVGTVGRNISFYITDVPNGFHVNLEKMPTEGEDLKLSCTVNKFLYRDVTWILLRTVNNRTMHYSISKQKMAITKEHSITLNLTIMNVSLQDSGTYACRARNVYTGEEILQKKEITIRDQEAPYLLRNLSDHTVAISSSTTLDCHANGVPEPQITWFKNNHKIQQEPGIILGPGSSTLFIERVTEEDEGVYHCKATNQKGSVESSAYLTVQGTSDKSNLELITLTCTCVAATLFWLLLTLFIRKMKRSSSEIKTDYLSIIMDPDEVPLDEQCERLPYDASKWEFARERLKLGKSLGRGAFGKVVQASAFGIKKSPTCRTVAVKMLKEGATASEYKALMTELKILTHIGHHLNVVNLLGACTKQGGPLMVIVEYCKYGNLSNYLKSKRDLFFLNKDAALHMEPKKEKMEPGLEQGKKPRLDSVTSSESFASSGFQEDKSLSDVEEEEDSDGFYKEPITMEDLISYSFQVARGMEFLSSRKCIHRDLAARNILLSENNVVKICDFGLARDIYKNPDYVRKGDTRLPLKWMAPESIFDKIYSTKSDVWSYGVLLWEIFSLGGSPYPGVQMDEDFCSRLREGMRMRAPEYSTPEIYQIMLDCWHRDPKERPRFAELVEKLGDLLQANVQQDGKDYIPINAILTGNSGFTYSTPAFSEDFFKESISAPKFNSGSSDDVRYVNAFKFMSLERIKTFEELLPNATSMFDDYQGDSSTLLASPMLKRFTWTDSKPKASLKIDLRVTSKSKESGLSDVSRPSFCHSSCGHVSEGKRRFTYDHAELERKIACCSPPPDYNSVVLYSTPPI
2800

====

# experiment_notes: Inhibition of cyclin D2-CDK4 ser/thr kinase.
# Design: species or system Homo sapiens
observation_type: IC50 (nM)
Only the number, expressed in nM, is required.

Note IC50 for the compound shown: "O=C(Nc1ccccn1)Nc1cccc2c1[C@H]1CCCN1C2=O"
42

====

# assayed_target: Cyclin-dependent kinase 2/cyclin A (Homo sapiens)
# experiment_notes: Inhibition of human recombinant cyclin A-CDK2
observation_type: pIC50
# pIC50 is unitless: minus log10 of the molar concentration; print number only

Specify measured pIC50 for "O=C(Nc1cc([C@@H]2CCCN2)[nH]n1)Nc1cccc2c1[C@H]1CCCN1C2=O" .
4.60

Tell us which pIC50 value is on record for CCCNCc1cc(NC(=O)Nc2cccc3c2C2CCCN2C3=O)[nH]n1 (stereo not given)
4.92

Tell me its pIC50 given CC(C)NCc1cc(NC(=O)Nc2cccc3c2C2CCCN2C3=O)[nH]n1 (stereo not given) as the entry.
4.77

Specify measured pIC50 for O=C(Nc1cc(CN2CCCC2)[nH]n1)Nc1cccc2c1C1CCCN1C2=O (stereo not given) .
5.12

Please give measured pIC50 of the following entry: CC(C)(C)NCc1cc(NC(=O)Nc2cccc3c2C2CCCN2C3=O)[nH]n1 (stereo not given)
5.01

====

# assayed_target: CDK6/cyclin D1 (Homo sapiens, UniProt Q00534)
# Sequence (P24385 whole entry): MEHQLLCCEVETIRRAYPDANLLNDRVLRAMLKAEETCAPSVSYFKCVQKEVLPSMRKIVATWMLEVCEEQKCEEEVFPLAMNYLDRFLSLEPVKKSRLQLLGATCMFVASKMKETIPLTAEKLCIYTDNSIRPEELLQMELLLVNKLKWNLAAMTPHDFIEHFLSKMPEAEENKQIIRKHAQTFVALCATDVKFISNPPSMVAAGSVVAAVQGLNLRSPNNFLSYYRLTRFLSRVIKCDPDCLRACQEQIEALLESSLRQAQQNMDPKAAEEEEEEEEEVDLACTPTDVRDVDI
# Sequence (Q00534 whole entry): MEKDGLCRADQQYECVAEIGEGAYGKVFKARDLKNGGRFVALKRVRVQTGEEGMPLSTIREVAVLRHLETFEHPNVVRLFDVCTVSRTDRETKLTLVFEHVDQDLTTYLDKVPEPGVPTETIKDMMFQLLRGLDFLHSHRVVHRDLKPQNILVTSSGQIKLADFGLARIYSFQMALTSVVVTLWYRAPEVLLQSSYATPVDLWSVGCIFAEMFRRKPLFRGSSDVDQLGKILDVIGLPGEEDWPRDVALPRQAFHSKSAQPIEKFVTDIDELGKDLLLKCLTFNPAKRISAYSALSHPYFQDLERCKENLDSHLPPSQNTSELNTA
# experiment_notes: Inhibition of cyclin D1-CDK6 ser/thr kinase.
observation_type: IC50 (µM)
Give just the number in µM; leave the unit off.

Consider the compound "O=C(Nc1ccccn1)Nc1cccc2c1[C@H]1CCCN1C2=O" and give its recorded IC50.
0.071

====

# assayed_target: Cyclin-dependent kinase 2/cyclin A (Homo sapiens, UniProt P24941)
# experiment_notes: Inhibition of human recombinant cyclin A-CDK2
Decide using IC50 alone. Strictly below 10 µM: class 1. Equal to or above 10 µM: class 0.

Dear reviewer, please state whether CNCc1cc(NC(=O)Nc2cccc3c2C2CCCN2C3=O)[nH]n1 (stereo not given) has IC50 strictly beneath 10 µM.
class 0

Criterion: IC50 strictly below 10 µM. Is it met by "O=C(Nc1cc([C@@H]2CCCN2)n[nH]1)Nc1cccc2c1[C@@H]1CCCN1C2=O" ?
class 0

For this molecule, is IC50 lower than 10 µM? O=C(Nc1cc(CNC2CCCCC2)[nH]n1)Nc1cccc2c1C1CCCN1C2=O (stereo not given)
class 0

Hello, is IC50 of the following molecule strictly smaller than 10 µM? O=C(Nc1cc(CN2CCCCC2)[nH]n1)Nc1cccc2c1C1CCCN1C2=O (stereo not given)
class 0

Strictly below 10 µM in IC50? O=C(Nc1cc(CNC2CCCC2)n[nH]1)Nc1cccc2c1C1CCCN1C2=O (stereo not given)
class 1
